Biological target: T1, APC9319-AA
T1 chain: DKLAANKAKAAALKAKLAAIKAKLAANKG
Experiment: two-hybrid library CCmax;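 further: natural log of median RNA to DNA barcode read ratio; higher means stronger binding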
Conditions: mean of both orientations
READOUT_TYPE: interaction score

# return recorded interaction score for entry DENAALEAELAAIEAKLAAIKAKLAAIKG [APC4011-AA] -1.27

Consider the binder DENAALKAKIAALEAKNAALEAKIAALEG [4H1845-AA] . State its measured interaction score. -1.55

Given the binder DELAANEAKLAAIKAKLAANKAKLAAIKG [APC8191-AA] , write its reported interaction score. -1.88

Quickly give me recorded interaction score for DENAALEAENAALEAKAAALKAELAAEEG [APC4436-AA] -1.7
